Value source: PubChem BioAssay (NCI)

# Test system: SNB-19 CNS
# Experimental protocol: NCI-60 one-dose screen, 48 h
# Settings: 10 µM unless noted
This is part of a sample that, as a whole, favours compounds with a hit. Of some 83,000 tested, about 20% had one in any assay. Activity calls are given as the source filed them. How the source made its calls: active means growth percent below 10; inactive means the rest.
Valid outcomes are listed here; reply with one: active, inactive

Given COC1=CC(=O)OC(CCc2ccc3c(c2)OCO3)C1 (configuration not stated) , state the outcome it received in this test.
inactive

Could you please tell me the result logged for "CNC(=O)Oc1cc(C(C)C)ccc1Sc1ccc(C(C)C)cc1OC(=O)NC" in this assay?
inactive

Hi team, can someone confirm the assay call for "CCOCC1(CCc2ccccc2)C(=O)NC(=S)NC1=O" ?
inactive

For "CC(/C=N/N=C(N)N)=N/N=C(N)N" , which call appears in the assay record?
inactive

Per the records of this test, what outcome belongs to C=CC(=O)NC(O)C(Cl)(Cl)Cl (configuration not stated) ?
inactive

In this assay, the call recorded for "C=C=[CH][Sn]([c]1ccccc1)([c]1ccccc1)[c]1ccccc1" was what?
active

Identify the outcome logged in this assay for the compound shown: CC(=O)O[C@H]1C[C@H](O[C@H]2[C@@H](O)C[C@H](O[C@H]3[C@@H](O)C[C@H](O[C@H]4CC[C@@]5(C)C(CCC6C5C[C@@H](O)[C@]5(C)[C@@H](C7=CC(=O)OC7)CC[C@]65O)C4)O[C@@H]3C)O[C@@H]2C)O[C@H](C)[C@H]1O[C@@H]1O[C@H](CO)[C@@H](O)[C@H](O)[C@H]1O (some centres not stated)
active

# fetch the recorded call for "CCOC(=O)Nc1cc(Cl)c([N+](=O)[O-])c(NC(=O)OCC)n1" here
inactive

Given "S=P(N1CCCCCC1)(N1CC1)N1CC1" , state the outcome it received in this test.
inactive

Which result was noted for this compound in the test: "O=C(NCc1ccc([N+](=O)[O-])cc1)Nc1ccc(S(=O)(=O)F)cc1"
inactive

For CC1COC(=O)C1 (configuration not stated) , which call appears in the assay record?
inactive

# outcome recorded in this test, key = CSc1ccccc1NP1(=O)OCC(C)([N+](=O)[O-])CO1 (configuration not stated)
inactive

Per the assay record, what outcome was assigned to "COC(C)(C)CCC[C@H](C)C/C=C/C(C)=C/C(=O)OC(C)C" ?
inactive

Recorded test outcome, item COc1cc(C2=NN(c3ccccc3)C(c3sc(N(CCCl)CCCl)nc3Cl)C2)cc(OC)c1OC (configuration not stated)
inactive

Hi, sorry to bother you, what did the test record for "CC(C)CCC1(CCO)C(=O)NC(=S)NC1=O" ?
inactive

Assay outcome for CC(=O)N1N=C(c2ccccc2)CC1c1sc(N(CCCl)CCCl)nc1Cl (configuration not stated) : what was it?
inactive

Just curious, what result did "Cc1cc(CCl)c(C)cc1CCl" get here?
inactive

Short answer needed: outcome of this test for "O=C1c2ccccc2C(=O)N1[N+](=O)[O-]" ?
active

What outcome does the record of this test show for CN1CCN(C(=O)COc2ccc(/C=C3\CC4C5CC=C6CC(Cl)CCC6(C)C5CCC4(C)C3=O)cc2)CC1 (configuration not stated) ?
inactive

Call for entry "c1ccc2nc(OCCN3CC3)ccc2c1" :
inactive

Record lookup: outcome of this test for CC1(CF)NC(=O)NC1=O (configuration not stated) ?
inactive

How was "Oc1ccc(Br)cc1CN1CCN(Cc2ccc(Cl)cc2)CC1" classified in this test?
inactive

What is the recorded call for this compound in the test? CCCCCCCCCCCCOc1ccc(C(=O)Oc2ccc(CSP3(=O)OCC4OC(n5cnc6c(N)ncnc65)C(F)C4OP(=O)(O)OCC4OC(n5ccc(=O)[nH]c5=O)C(F)C4O3)cc2)cc1 (configuration not stated)
inactive

Name the outcome recorded for CC(=O)O[C@H]1CCC2C3CCC4=C/C(=N/O)CCC4(C)C3CCC21C (some centres not stated) in the assay.
inactive

Returns: the outcome recorded for O=C(c1cccs1)C1NO[N+]([O-])=C1c1cccs1 (configuration not stated) in this assay.
inactive

// outcome(item) with item = "CC(C)[C@]12O[C@H]1[C@@H]1O[C@]13[C@]1(O[C@H]1C[C@H]1C4=C(CC[C@@]13C)C(=O)OC4)[C@@H]2OC(=O)OC(C)(C)C"
inactive

Tell me the recorded outcome of this test for OC1CCCCC1N1CCC(c2ccccc2)CC1 (configuration not stated) .
inactive

So what was the verdict on "COc1ccc(/C=C\c2cc(OC)c(OC)c(OC)c2)cc1N/C=C\C(=O)c1c[nH]c2ccccc12" in this test?
inactive

What classification did O=C1NC(=O)C(CN2C(=O)C3(c4ccccc42)[C@H](Cl)C(=O)N3c2ccccc2)C(=O)N1 (some centres not stated) end up with in this test?
inactive

For C[C@@H]1O[C@@H](O[C@H]2CC[C@@]3(C)[C@H](CCC4[C@@H]3C(O)C[C@]3(C)[C@@H](c5ccc(=O)oc5)CC[C@]43O)C2)[C@H](O)[C@H](O)[C@H]1O (some centres not stated) , which call appears in the assay record?
active

Returns: the outcome recorded for C#CC1(O)CCC2(C)C(CCC3C4CCC(=O)C4(C)CCC32)C1 (configuration not stated) in this assay.
inactive

// param item: "O=S(=O)(O)c1ccc(-c2ccc([As](=O)(O)O)cc2)cc1" ; yields the recorded call
inactive

// outcome(item) with item = CNC(C)Cc1ccccc1 (configuration not stated) (tested in a mixture with another compound)
inactive

Recorded call for "CCCCNCCc1ccccn1" ?
inactive

What call does the record list for COc1cc2c(cc1OC)CN(C)C(C)C2 (configuration not stated) ?
inactive

State the result this test recorded for "O=[N+]([O-])c1ccccc1N1CCNCC1" .
inactive

For "CN1CC2CCC(C1)C2=O" , which call appears in the assay record?
inactive

For this compound, state the assay outcome: "CO[C@@H](c1ccccc1Cl)[C@H](C)OC(N)=O"
inactive

Please indicate how the test categorized "CC[C@@H](C)/C=C(C)/C=C/C(=O)c1c(O)c(-c2ccc(O)cc2)cn(O)c1=O" .
inactive

Give the logged outcome of this assay for the following compound: "O=C(CF)N(O)c1ccc(/C=C/c2ccccc2)cc1"
inactive

So what was the verdict on O=C(O)C1(Br)CC12c1ccccc1-c1ccccc12 (configuration not stated) in this test?
inactive

How was "COc1cc(C2(C#N)CCN(C)CC2)cc(OC)c1OC" classified in this test?
inactive

====

# Tested on: HL-60(TB) leukemia
# Experimental protocol: NCI-60 one-dose screen, 48 h
# Settings: 10 µM unless noted
This is part of a sample that, as a whole, favours compounds with a hit. Of some 83,000 tested, about 20% had one in any assay. Activity calls are given as the source filed them. How the source made its calls: active means growth percent below 10; inactive means the rest.
// classify into active, inactive

Could you please tell me the result logged for "C=C1C(=O)O[C@H]2[C@H]1CC/C(CNC(=O)/C=C/c1ccc(Br)cc1)=C\CC[C@@]1(C)O[C@@H]21" in this assay?
active

Record lookup: outcome of this test for "O=C(Oc1cccc2cccnc12)c1ccccc1" ?
inactive

// return assay outcome for "CN(C)CCC(CCN(C)C)(C(=O)O)c1ccccc1"
inactive

Test call for this molecule, please: "O=S(=O)(NCCCNc1nccc(-n2ccc3cccnc32)n1)c1cccc(C(F)(F)F)c1"
inactive

Any idea what this test logged for "C=CCN1C=CC(=O)[C@H](O[Si](C)(C)C(C)(C)C)[C@@H]1/C=C/c1ccccc1" ?
active

Test call for this molecule, please: "CCOC(=O)C1=C(C)NC(SCc2cc(=O)oc3ccc(F)cc23)=N[C@@H]1c1cccc2ccccc12"
inactive

// param item: "Cc1ccc(-c2nc(SCC(=O)c3ccc(C#N)cc3)[nH]c(=O)c2C#N)cc1" ; yields the recorded call
inactive

Which outcome was assigned to "O=Nc1c(-c2c(O)[nH]c3ccc([N+](=O)[O-])cc23)[nH]c2ccc(O)cc12" in this test?
active

Could you kindly confirm the outcome this assay logged for "C=C1C(=O)O[C@H]2[C@H]1CC/C(COC(=O)C(=O)c1cn(C)c3ccc(OC)cc13)=C\CC[C@@]1(C)O[C@@H]21" ?
active

====

# Tested on: SK-MEL-28 melanoma
# Experimental protocol: NCI-60 one-dose screen, 48 h
# Settings: 10 µM unless noted
The panel holds about 83,000 compounds, 20% with a hit somewhere; the sample as a whole holds those more often. Activity calls are given as the source filed them. How the source made its calls: active means growth percent below 10; inactive means the rest.
Select the matching outcome among T for active, F for inactive

Short answer needed: outcome of this test for "C[CH2][Pb]([CH2]C)([CH2]C)[O]C(=O)COc1ccccc1" ?
F

Status in this test for COc1cc(C2CC(=O)Nc3nc(N)[se]c32)cc(OC)c1OC (configuration not stated) ?
F

// outcome(item) with item = "O=C(C(=O)N1CCCC1)c1cn(CCCCCn2cc(C(=O)C(=O)N3CCCC3)c3ccccc32)c2ccccc12"
F

So what was the verdict on OC1(c2ccccc2F)c2ccccc2C2=NCCN21 (configuration not stated) in this test?
F

Given N#CC1=C(N)Oc2cc3c(cc2C1c1cccs1)OCO3 (configuration not stated) , state the outcome it received in this test.
F

Name the outcome recorded for [N-]=[N+]=NC(C(=O)O)c1ccccc1 (configuration not stated) in the assay.
F

// return assay outcome for O=CC(Br)C(Br)c1ccccc1 (configuration not stated)
F

Record lookup: outcome of this test for O=C(c1cccs1)C1NO[N+]([O-])=C1c1cccs1 (configuration not stated) ?
F

# outcome recorded in this test, key = "CC(C)CCC1(CCO)C(=O)NC(=S)NC1=O"
F

Status in this test for "Nc1nc(N)c(-c2ccc(Cl)c(Cl)c2)c(/C=C/c2ccc(S(=O)(=O)F)cc2)n1" ?
F

Kindly provide the recorded test outcome for the following compound: "NC(=O)NC(=O)CI"
F

Field: outcome | Entry: CC[C@@]1(C2O[C@@H](C3O[C@@](O)(CC)[C@H](C)C[C@@H]3C)C[C@@H]2C)CC[C@H]([C@]2(C)CCC3(C[C@H](O)[C@@H](C)[C@@H]([C@H](C)[C@@H](OC)[C@H](C)C(=O)O)O3)O2)O1 (some centres not stated)
F

Which outcome was entered for the compound Nc1ncnc2c1c(C(=O)NO)cn2C1OC(CO)C(O)C1O (configuration not stated) in this test?
T

How did this test come out for "Cc1cc(NC(=O)/C=C/c2ccc([N+](=O)[O-])cc2)ccc1S(=O)(=O)F" ?
F

Which result was noted for this compound in the test: "O=C1NC(=O)C(=Cc2cn(Cc3ccccc3)c3ccccc23)C(=O)N1"
F

Tell me the recorded outcome of this test for CC1([N+](=O)[O-])COP(=O)(Nc2ccc(F)cc2)OC1 (configuration not stated) .
F

I would be grateful if you could indicate the recorded call for "CCC[CH2][Sn]([CH2]CCC)([CH2]CCC)[O]C(=O)CC" .
T

Look up the recorded call for "CCCCn1cc(C(=O)/C(C#N)=C/c2cc3ccccc3nc2Cl)c2cc(OC)ccc21" in this test.
F

Could you check what this test reported for "[O]=[Sn]([CH]1CCCCC1)[CH]1CCCCC1" ?
T

Please indicate how the test categorized "NS(=O)(=O)c1nc[nH]c1[N+](=O)[O-]" .
F

I'd appreciate the recorded outcome for "COC(=O)C[Se]C(=O)c1ccccc1OC(C)=O" from this test.
F

Please share the test call associated with COc1ccc2c(c1)NC1=C(C(=O)OC1)C2c1cc(OC)c(OC)c(OC)c1 (configuration not stated) .
F

What was the test verdict on "C[C@]12C[C@H](O)[C@H]3[C@@H](CCC4=CC(=O)CC[C@@]43C)[C@@H]1CC[C@@H]2O" ?
F

I'd appreciate the recorded outcome for "CC1(C)N=C(N)N=C(N)N1c1ccc(OCCCCNC(=O)c2ccc(S(=O)(=O)F)cc2)c(Cl)c1" from this test.
F

Which outcome did this test record for the compound "CNC(=O)Oc1ccccc1-c1ccccc1" ?
F

Could you please tell me the result logged for "O=[N+]([O-])c1ccc2cnn(CSP(=S)(c3ccccc3)c3ccccc3)c2c1" in this assay?
F

Kindly provide the recorded test outcome for the following compound: "O=C(CCCN1CCC2(CC1)C(=O)NCN2c1ccc(F)cc1)c1ccc(F)cc1"
F

Test call for this compound, please: CC(C)(C)NCC(O)c1ccccc1Cl (configuration not stated)
F

Give the logged outcome of this assay for the following compound: C[C@@H]1O[C@@H](O[C@H]2CC[C@@]3(C)[C@H](CCC4[C@@H]3C(O)C[C@]3(C)[C@@H](c5ccc(=O)oc5)CC[C@]43O)C2)[C@H](O)[C@H](O)[C@H]1O (some centres not stated)
T

Check the results log: what was the call for "O=C1NC(=O)C(O)(C2(O)C(=O)NC(=O)NC2=O)C(=O)N1" ?
F

What did this assay record as the result for COC1=CC(=O)OC(CCc2ccc3c(c2)OCO3)C1 (configuration not stated) ?
F

Which outcome was assigned to CCC1([N+](=O)[O-])COP(=O)(NCc2cccnc2)OC1 (configuration not stated) in this test?
F

Fill in: this test's call for "COc1ccccc1N1CCN(CCc2c[nH]c3cc4c(cc23)OCO4)CC1" is ___
F

Hi, sorry to bother you, what did the test record for "CNC(=O)Oc1cccc(N(C)C)c1" ?
F

State the result this test recorded for CCCCCCCCCCCCOc1ccc(C(=O)Oc2ccc(CSP3(=O)OCC4OC(n5cnc6c(N)ncnc65)C(F)C4OP(=O)(O)OCC4OC(n5ccc(=O)[nH]c5=O)C(F)C4O3)cc2)cc1 (configuration not stated) .
F

Per the assay record, what outcome was assigned to "CC1(C)N=C(N)N=C(N)N1c1ccc(CCCCc2ccc(S(=O)(=O)F)cc2)c(Cl)c1" ?
F

Assay result, entry "Cc1cc(N(CCCl)CCCl)ccc1C=Nc1ccc2ccccc2c1" — outcome?
F

For "CC[C@@H](C)/C=C(C)/C=C/C(=O)c1c(O)c(-c2ccc(O)cc2)cn(O)c1=O" , which call appears in the assay record?
F

Please share the test call associated with COc1cc2c(cc1OC)CN(C)C(C)C2 (configuration not stated) .
F

Outcome? "CC(=O)N(C)C1=Nc2ccc(Cl)cc2C(c2ccccc2)=[N+]([O-])C1"
F

Per the assay record, what outcome was assigned to CC1CC=CCC12C(=O)NC(=S)NC2=O (configuration not stated) ?
F

// param item: "CCOC(=O)c1cnc(SCc2ccc(Cl)c(Cl)c2)nc1N1CC1" ; yields the recorded call
F
